// provenance: patent US20200048331A1

Measured on: artificial cell surface (ACS): biotinylated cell surface proteins from human mononuclear blood cells coupled to streptavidin-sepharose
Assay: ACS affinity column adsorption of tryptic dHSA peptides, MALDI-TOF ms
Where no end group is shown, it is not given here. The star is where a group is joined. Cam = NC(=O)C*
Hi! Could you tag entries with Per cent adsorbed (per cent adsorbed, printed as fraction) below 0.3 as 1 (yes), and those at or above as 0 (no)? Much appreciated.

C(Cam)C(Cam)TESLVNR [HSA tryptic peptide residues 500-508 …]    1 (yes)
SLHTLFGDK [HSA tryptic peptide residues 089-097 …]    0 (no)
FQNALLVR [HSA tryptic peptide residues 427-434 FQNALLVR]    0 (no)
VHTEC(Cam)C(Cam)HGDLLEC(Cam)ADDR [HSA tryptic peptide residues 265-281 …]    1 (yes)
LDELRDEGK [HSA tryptic peptide residues 206-214 …]    1 (yes)
KYLYEIAR [HSA tryptic peptide residues 161-168 KYLYEIAR]    0 (no)
FKDLGEENFK [HSA tryptic peptide residues 35-44 …]    1 (yes)
YIC(Cam)ENQDSISSK [HSA tryptic peptide residues 287-298 …]    1 (yes)
